# tested on: thrombin (APC / TAFI activation assays of Examples V, VI and VIII; source not stated for the assay)
# assay summary: cell-based or functional assay
measured attribute: cofactor activity (APC assay)

query: Please give the measured cofactor activity (APC assay) for this binder: TME with Ala inserted between 387 and 388 (receptor) CSVENGGCEHACNAIPGAPRCQCPAGAALQADGRSCTASATQSCNDLCEHFCVPNPDQPGSYSCMCETGYRLAADQHRCEDVDDCILEPSPCPQRCVNTQGGFECHCYPNYDLVDGECVEPVDPCFRANCEYQCQPLNQTSYLCVCAEGFAPIPHEPHRCQAMFCNQTACPADCDPNTQASCECPEGYILDDGFICTDIDECENGGFCSGVCHNLPGTFECICGPDSALARHIGTDC
result: < 10 % of wild type TME
